Experiment: self-splicing fitness, log relative to wild type (ln ratio); higher = more splicing; Tetrahymena group I intron in knt gene, E. coli kanamycin selection, DiMSum; sequences stand for … in CUCUCU…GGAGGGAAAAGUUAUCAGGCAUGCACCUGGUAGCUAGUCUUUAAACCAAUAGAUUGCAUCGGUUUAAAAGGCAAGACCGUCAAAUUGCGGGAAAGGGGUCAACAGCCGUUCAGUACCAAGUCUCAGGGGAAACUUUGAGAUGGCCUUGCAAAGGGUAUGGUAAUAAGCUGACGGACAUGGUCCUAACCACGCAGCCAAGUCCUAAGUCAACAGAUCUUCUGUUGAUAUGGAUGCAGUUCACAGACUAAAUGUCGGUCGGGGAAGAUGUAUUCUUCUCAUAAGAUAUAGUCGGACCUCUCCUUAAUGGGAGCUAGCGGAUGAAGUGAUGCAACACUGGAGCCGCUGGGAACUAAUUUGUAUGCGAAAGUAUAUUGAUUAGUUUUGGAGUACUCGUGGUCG;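 further: selection with 25 µg/mL kanamycin versus none on LB agar overnight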
Details: 30 °C
Here the recorded self-splicing fitness (ln) is given for each entry.
# answer = number (no unit)

Below are worked cases with known answers.
construct-sequence | self-splicing fitness (ln)
GGAAAGCAAUAUUACGUUGU | -4.15
ACAAAGCAAUAUUACGUAGC | -2.35

Lab note: CGGAAGCAAUAUUACGACAA gave self-splicing fitness (ln) of -2.42

Lab note: GUUAAGCAAUAUUACGCAGU gave self-splicing fitness (ln) of -1.74

Lab note: GAUUAGCAAUAUUACGAAUC gave self-splicing fitness (ln) of -4.13

Lab note: UGUUAGCAAUAUUACGUGUA gave self-splicing fitness (ln) of -2.88

Lab note: ACUCAGCAAUAUUACGUCUA gave self-splicing fitness (ln) of -0.845

Lab note: CCUGAGCAAUAUUACGUUCG gave self-splicing fitness (ln) of -3.43

Lab note: AUGCAGCAAUAUUACGAAGU gave self-splicing fitness (ln) of -2

Lab note: ACGUAGCAAUAUUACGACUG gave self-splicing fitness (ln) of -1.78

Lab note: AUAAAGCAAUAUUACGACAA gave self-splicing fitness (ln) of -0.556

Lab note: UAGGAGCAAUAUUACGAGAG gave self-splicing fitness (ln) of -3.02
